System: 317291-083-R-J1-PDC complex spheroid growth
Assay: Anticancer human tumor 317291-083-R-J1-PDC patient-derived soft tissue sarcoma cell line growth inhibition [Asc]; active = viability on the fitted dose curve at most 10% of control; inactive = the rest
Settings: second compound 0.1 µM; first compound 0.0949 µM
Text: Multicellular complex tumor spheroid response to apoptosis pathway targeting inhibitors Alrizomadlin, Pelcitoclax, and Dasminapant in combination with a variety of drugs and investigational agents in selected tumor cell lines […] Compounds. […] If the clinical Cmax for an agent had not been determined, the highest concentration tested was 10 microM. […]
Answer with one of the outcomes given here: active, inactive

Worked examples follow.
compound	label_class
CCN1C(C(=O)NC23CCC(C(=O)O)(CC2)CC3)C(c2cccc(Cl)c2F)C2(C(=O)Nc3cc(Cl)ccc32)C12CCCCC2 (stereo not drawn) + CNC(C)C(=O)NC1CN(S(=O)(=O)c2cccc(S(=O)(=O)N3CCC4CCC(C(=O)NC(c5ccccc5)c5ccccc5)N4C(=O)C(NC(=O)C(C)NC)C3)c2)CCC2CCC(C(=O)NC(c3ccccc3)c3ccccc3)N2C1=O	inactive
NC(=O)C(=Cn1cnc(-c2cc(C(F)(F)F)cc(C(F)(F)F)c2)n1)c1cncnc1 + CNC(C)C(=O)NC1CN(S(=O)(=O)c2cccc(S(=O)(=O)N3CCC4CCC(C(=O)NC(c5ccccc5)c5ccccc5)N4C(=O)C(NC(=O)C(C)NC)C3)c2)CCC2CCC(C(=O)NC(c3ccccc3)c3ccccc3)N2C1=O	active

Consider now this further compound.
Entry Cc1nc(N2CCC3(CC2)COC(C)C3N)c(CO)nc1Sc1ccnc(N)c1Cl (stereo not drawn) + Cc1c(S(C)(=O)=O)c(-c2cc(F)cc(N3CCN(c4ccc(NS(=O)(=O)c5ccc(NC(CCN6CCC(C(=O)OCCCP(=O)(O)O)CC6)CSc6ccccc6)c(S(=O)(=O)C(F)(F)F)c5)cc4)CC3)c2)c(-c2ccc(Cl)cc2)n1C(C)C : call = ?
inactive

---

Please provide measured viability, T/C for the entries that follow.
Tested on: 317291-083-R-J1-PDC complex spheroid growth
Test: Anticancer human tumor 317291-083-R-J1-PDC cell line growth inhibition [Asc];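 also: compound exposure lasted seven days after spheroids formed for three days; 100% = DMSO vehicle control wells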
Details: second compound 0.1 µM; first compound 0.0316 µM; hits give low values
Numbers only, in %.

Here are 5 compounds together with their reported answers.
compound	value_kind	unit_name	endpoint_result
COc1c(OCCCN2CCOCC2)ccc2c3n(c(=NC(=O)c4cnc(N)nc4)nc12)CCN3 + CNC(C)C(=O)NC1CN(S(=O)(=O)c2cccc(S(=O)(=O)N3CCC4CCC(C(=O)NC(c5ccccc5)c5ccccc5)N4C(=O)C(NC(=O)C(C)NC)C3)c2)CCC2CCC(C(=O)NC(c3ccccc3)c3ccccc3)N2C1=O	viability, T/C	%	38.9
Cn1ncnc1[C@H]1c2n[nH]c(=O)c3cc(F)cc(c23)N[C@@H]1c1ccc(F)cc1 + Cc1c(S(C)(=O)=O)c(-c2cc(F)cc(N3CCN(c4ccc(NS(=O)(=O)c5ccc(NC(CCN6CCC(C(=O)OCCCP(=O)(O)O)CC6)CSc6ccccc6)c(S(=O)(=O)C(F)(F)F)c5)cc4)CC3)c2)c(-c2ccc(Cl)cc2)n1C(C)C	viability, T/C	%	64.7
C#Cc1c(F)ccc2cc(O)cc(-c3ncc4c(N5CC6CCC(C5)N6)nc(OCC56CCCN5CC(F)C6)nc4c3F)c12 (configuration not stated) + CNC(C)C(=O)NC1CN(S(=O)(=O)c2cccc(S(=O)(=O)N3CCC4CCC(C(=O)NC(c5ccccc5)c5ccccc5)N4C(=O)C(NC(=O)C(C)NC)C3)c2)CCC2CCC(C(=O)NC(c3ccccc3)c3ccccc3)N2C1=O	viability, T/C	%	54.9
O=C(c1ccc(F)c(F)c1Nc1ccc(I)cc1F)N1CC(O)([C@@H]2CCCCN2)C1 + CNC(C)C(=O)NC1CN(S(=O)(=O)c2cccc(S(=O)(=O)N3CCC4CCC(C(=O)NC(c5ccccc5)c5ccccc5)N4C(=O)C(NC(=O)C(C)NC)C3)c2)CCC2CCC(C(=O)NC(c3ccccc3)c3ccccc3)N2C1=O	viability, T/C	%	56.3
O=C(c1cc(Cc2n[nH]c(=O)c3ccccc23)ccc1F)N1CCN(C(=O)C2CC2)CC1 + Cc1c(S(C)(=O)=O)c(-c2cc(F)cc(N3CCN(c4ccc(NS(=O)(=O)c5ccc(NC(CCN6CCC(C(=O)OCCCP(=O)(O)O)CC6)CSc6ccccc6)c(S(=O)(=O)C(F)(F)F)c5)cc4)CC3)c2)c(-c2ccc(Cl)cc2)n1C(C)C	viability, T/C	%	90

Please give viability, T/C for each item listed below.
1. C=CC(=O)N1CCN(c2nc(=O)n(-c3c(C)ccnc3C(C)C)c3nc(-c4c(O)cccc4F)c(F)cc23)C(C)C1 (configuration not stated) + CNC(C)C(=O)NC1CN(S(=O)(=O)c2cccc(S(=O)(=O)N3CCC4CCC(C(=O)NC(c5ccccc5)c5ccccc5)N4C(=O)C(NC(=O)C(C)NC)C3)c2)CCC2CCC(C(=O)NC(c3ccccc3)c3ccccc3)N2C1=O
2. O=C(c1ccc(F)c(F)c1Nc1ccc(I)cc1F)N1CC(O)([C@@H]2CCCCN2)C1 + Cc1c(S(C)(=O)=O)c(-c2cc(F)cc(N3CCN(c4ccc(NS(=O)(=O)c5ccc(NC(CCN6CCC(C(=O)OCCCP(=O)(O)O)CC6)CSc6ccccc6)c(S(=O)(=O)C(F)(F)F)c5)cc4)CC3)c2)c(-c2ccc(Cl)cc2)n1C(C)C

1. 68.7
2. 72.2
